Item-by-item account of normalized growth
assay: chemical genetic growth profiling, strain panel (AID 1159580);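 note: tested at 20 µM; growth read once vehicle control cultures reached saturation at 30 °C; 1 = growth at the plate median or of vehicle wells; lower values mean less growth of the strain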; settings: S. cerevisiae deletion strains, growth OD, locus YDR052C, strain DBF4, hits give low values
Out of some 5,500 compounds screened, about 2,000 (36%) were called active. Another 18% or so got no clear call; they are omitted. Some of the results follow.
observation type: normalized growth

INSERT INTO measurements (molecule, test_value) VALUES
  ('Cc1csc2c(N3CCN(C(=S)Nc4ccc(C(F)(F)F)cc4)CC3)ncnc12', 0.999),
  ('CC1SC(c2cccnc2)N(c2ccc(F)cc2F)C1=O (stereo unspecified)', 0.981),
  ('COC(=S)Nc1cc(Cl)cc(Cl)c1', 0.935),
  ('O=[N+]([O-])c1ccc(NCc2ccc(Cl)c(Cl)c2)nc1', 0.953),
  ('COC(=O)c1sccc1S(=O)(=O)Nc1cc(C(F)(F)F)cc(C(F)(F)F)c1', 0.969),
  ('O=C(OCCNc1ccc([N+](=O)[O-])cn1)c1ccc([N+](=O)[O-])o1', 0.81),
  ('O=C(Nc1ccc(F)cc1F)c1cc(Cl)ccc1O', 0.926),
  ('CC(C)c1cccc(C(C)C)c1OC(=O)NC(=O)c1c(Cl)cccc1Cl', 0.978),
  ('Cc1csc2ncnc(N3CCN(C(=S)Nc4ccc(C(F)(F)F)cc4)CC3)c12', 1),
  ('O=C(NCc1ccc2c(c1)OCO2)c1cc2ccccc2s1', 0.933),
  ('O=C(/C=C/c1ccc(Cl)cc1)Nc1cccc(Cl)c1', 0.952);
